assay.name: in vivo
condition.parameters: Sprague-Dawley (S.D.), rat, iv, 10 mg/kg, Kp (ratio of tissue to plasma concentration), kidney, 10 mg/kg i.v.
property.name: Kp at 4 h
// no unit string in output, number only

Prompt: # lookup: Kp at 4 h of NCCCNCCCCNCCCNc1cc2nc(-c3ccccc3Cl)[nH]c(=O)c2cc1F
Response: 26.3

* * *

assay.name: Cytotoxicity, HFL-1
Type: cell-based
condition.parameters: human, HFL-1 cells
pEC50: −log10 of the molar value.
property.name: pEC50

Prompt: # lookup: pEC50 of NCCCNCCCCNCCCNc1cc2nc(-c3ccccc3Cl)[nH]c(=O)c2cc1F
Response: < 4.00

* * *

assay.name: Pharmacokinetic study in rats
Assay type: in vivo
condition.parameters: Sprague-Dawley (S.D.), rat, plasma, po, 300 mg/kg
property.name: half-life (min)
Please reply with the bare figure in min and do not write the unit itself.

Prompt: # lookup: half-life of NCCCNCCCCNCCCNc1cc2nc(-c3ccccc3Cl)[nH]c(=O)c2cc1F
Response: 138

* * *

assay.name: Pharmacokinetic study in rats
Type: in vivo
condition.parameters: Sprague-Dawley (S.D.), rat, plasma, po, 300 mg/kg
property.name: Tmax (min)
Please reply with the bare figure in min and do not write the unit itself.

Prompt: # lookup: Tmax of NCCCNCCCCNCCCNc1cc2nc(-c3ccccc3Cl)[nH]c(=O)c2cc1F
Response: 42

* * *

assay.name: in vivo
condition.parameters: Sprague-Dawley (S.D.), rat, iv, 10 mg/kg, Kp (ratio of tissue to plasma concentration), brain, 10 mg/kg i.v.
property.name: Kp at 4 h

Prompt: # lookup: Kp at 4 h of NCCCNCCCCNCCCNc1cc2nc(-c3ccccc3Cl)[nH]c(=O)c2cc1F
Response: 11.3

* * *

assay.name: Pharmacokinetic study in rats
Assay type: in vivo
condition.parameters: Sprague-Dawley (S.D.), rat, plasma, iv, 5 mg/kg
property.name: clearance (mL/min/kg)
Please reply with the bare figure in mL/min/kg and do not write the unit itself.

Prompt: # lookup: clearance of NCCCNCCCCNCCCNc1cc2nc(-c3ccccc3Cl)[nH]c(=O)c2cc1F [KR-39038]
Response: 26.7

* * *

assay.name: Pharmacokinetic study in rats
Format: in vivo
condition.parameters: Sprague-Dawley (S.D.), rat, plasma, iv, 5 mg/kg
property.name: AUC(0-inf) (ng·h/mL)
Please reply with the bare figure in ng·h/mL and do not write the unit itself.

Prompt: # lookup: AUC(0-inf) of NCCCNCCCCNCCCNc1cc2nc(-c3ccccc3Cl)[nH]c(=O)c2cc1F
Response: 3400

* * *

assay.name: Cytotoxicity, L929
Assay type: cell-based
condition.parameters: mouse, L929 cells
property.name: pEC50
Bear in mind: pEC50 is minus log10 of a mol/L concentration; give just that figure.

Prompt: # lookup: pEC50 of NCCCNCCCCNCCCNc1cc2nc(-c3ccccc3Cl)[nH]c(=O)c2cc1F
Response: 4.05

* * *

assay.name: Pharmacokinetic study in rats
Format: in vivo
condition.parameters: Sprague-Dawley (S.D.), rat, plasma, po, 300 mg/kg
property.name: Cmax (ng/mL)
Please reply with the bare figure in ng/mL and do not write the unit itself.

Prompt: # lookup: Cmax of NCCCNCCCCNCCCNc1cc2nc(-c3ccccc3Cl)[nH]c(=O)c2cc1F
Response: 5200
